assay: Saturation solubility in 50 wt % aqueous ethanol; format: physicochemical; conditions: organic solvent or mixture, 50 wt % of aqueous ethanol
quantity: solubility

Lab book: solubility of CC(=O)OCC(=O)[C@@]1(O)CC[C@H]2[C@@H]3C[C@H](C)C4=CC(=O)C=C[C@]4(C)[C@H]3[C@@H](O)C[C@@]21C [Methylprednisolone acetate, 6α-methylprednisolone acetate] noted as > 3000 µg/mL
